EXPERIMENTAL READOUT: melting point

Below, each entry is followed by its recorded melting point result.
>>> print(df.to_string())
                                   compound          value
0                       Cc1sc(C(F)(F)F)nc1O  108 to 110 °C
1                   CNc1nc(C)c(-c2ccncc2)s1  155 to 156 °C
2  COc1ccc2c(c1)Cc1cc(C(C)C(=O)O)ccc1-2 (configuration not stated)  179 to 181 °C
3  Cc1cccc2c1nc(-c1c(F)cccc1F)n2Cc1c(F)cccc1F  182 to 186 °C
4  CCOC(=O)C1=C[C@@H]2OC(C)=N[C@@H]2[C@@H](NC(=O)OC(C)(C)C)C1    45 to 49 °C

Query: melting point; subject: COC(=O)c1ccc(N2CCSC2=N)c([N+](=O)[O-])c1 156 °C

Query: melting point; subject: CCNC(=O)NCCCNn1c(COCC)nc2c(N)nc3ccccc3c21 138 to 141 °C

Query: melting point; subject: COC(=O)c1ccc(C=C(CBr)C(=O)OC(C)(C)C)cc1 78 °C

* * *

EXPERIMENTAL READOUT: melting point

Below, each entry is followed by its recorded melting point result.
>>> print(df.to_string())
                                   compound          value
0  COc1ccc(C(=O)N2CCN(c3ccc([N+](=O)[O-])c(C=CC(=O)O)c3)CC2)cc1OC  197 to 202 °C
1  CC1(C)CCC(C)(C)c2cc(SCc3ccc(C(=O)O)cc3)ccc21  169 to 170 °C
2  CCCCCN1C(=O)C(CCC(=O)OC)(NC(=O)C2CCc3ccccc3C2)c2ccccc21 (stereo not given)  172 to 179 °C
3  O=C(O)C[C@H]1C[C@@H](CCCCCCc2ccc(Cl)cc2Cl)OC1=O (relative stereo)    57 to 59 °C
4  COc1ccc(OCC(O)CN2CCN(c3ccccc3C(=O)O)CC2)c(C(C)(C)C)c1 (stereo not given)  171 to 172 °C

Query: melting point; subject: Cc1cccc2ncc(C(=O)NC3CCCCC3)c(=O)n12 174 to 176 °C

Query: melting point; subject: COc1ccc(CCl)c(C)c1OC 67 to 68.5 °C

Query: melting point; subject: Cc1ccc(CC(=O)O)c(OCc2ccc(OCc3nc(-c4ccccc4)oc3C)cc2)n1 138 to 139 °C

Query: melting point; subject: CN(C)c1cccc(Oc2cccc(Cl)n2)c1 71 to 72 °C

Query: melting point; subject: CC1(CNC(=O)CCl)OCCc2c1[nH]c1ccccc21 (stereo not given) 186 to 187 °C

* * *

EXPERIMENTAL READOUT: melting point

Query: melting point; subject: CS(=O)(=O)Nc1ccc(OCCN2CCN(C(=O)c3ccc(NS(C)(=O)=O)cc3)CC2)cc1 170 to 175 °C

Query: melting point; subject: Cc1cc(Oc2ncc(C(F)(F)F)cc2Cl)nn1C(=O)OC(C)(C)C 90 to 92 °C

* * *

Below, each entry is listed with its recorded melting point.

>>> print(df.to_string())
                                   compound          value
0        COc1ccc(CCNC(=O)C(=O)O)cc1OC1CCCC1  123 to 124 °C
1  O=c1n(-c2ccc(Cl)c(Cl)c2)c(=O)n(SC(Cl)(Cl)Cl)n1SC(Cl)(Cl)Cl         167 °C
2  CCCN(CCC)Cc1nc(-c2ncn3c2CN(C)C(=O)c2ccccc2-3)no1  130 to 132 °C
3  O=C1CCC(N2Cc3c(OCc4ccc(CN5CCS(=O)CC5)cc4)cccc3C2=O)C(=O)N1 (configuration not stated)  170 to 172 °C
4   Cc1ccc([N+](=O)[O-])cc1S(=O)(=O)n1ccnc1  119 to 120 °C
5                    O=Cc1csc(NCc2ccccc2)n1  162 to 165 °C

Query: melting point; subject: O=[N+]([O-])c1cc(CO)ccc1OCc1ccccc1 76 to 77 °C

Query: melting point; subject: COC(=O)C(C)(C)Cc1cc2ccc(O)cc2n1C 125 to 126 °C

Query: melting point; subject: CC(C)CCC1C(=O)N(c2c(F)c(F)nc(F)c2F)S(=O)(=O)N1C (configuration not stated) 80.5 to 81.5 °C

Query: melting point; subject: O=C(Nc1cccc(Br)c1)Oc1ccc2c(c1)CCCN2 198 °C

Query: melting point; subject: Cn1c(CN2C(=O)C3(COc4cc5c(cc43)OCO5)c3ccccc32)nc2ccccc21 (configuration not stated) > 250 °C

Query: melting point; subject: CC(c1ccc(-c2ccc(F)cc2)cc1)N1CCN(CCO)CC1 (configuration not stated) 120 to 123 °C

Query: melting point; subject: CCc1cc(C(C)(C)C)c(OP2OCC(C)(C)CO2)c(C(C)(C)C)c1CC(=O)O 134 to 136 °C

Query: melting point; subject: Nc1ncc(CCC2CCCCC2)s1 98 to 99 °C

* * *

Below, each entry is listed with its recorded melting point.

                compound        value
0  C#CCSc1nc(Cl)cc(Cl)n1  67 to 70 °C

Query: melting point; subject: CC(CCC(=O)O)(c1ccc(OCc2ccc3ccc(Cl)cc3n2)cc1)c1ccc(OCc2ccc3ccc(Cl)cc3n2)cc1 88 to 90 °C

Query: melting point; subject: COc1ccc(NC(C)c2ccccc2)cc1 (configuration not stated) 64 °C

Query: melting point; subject: COC(=O)CCc1ccc(CNC(=O)C2Cc3ccccc3N2S(=O)(=O)c2ccc(-c3cccc(C(F)(F)F)c3)cc2)cc1 (configuration not stated) 61 °C

* * *

EXPERIMENTAL READOUT: melting point

Query: melting point; subject: O=C1C(c2ccccc2)=C(c2c(Cl)cccc2Cl)C(=O)N1c1ccc(Cl)cc1 134 °C

* * *

EXPERIMENTAL READOUT: melting point

>>> print(df.to_string())
                                   compound  experimental_readout          value
0  CCNC(=NS(=O)(=O)c1ccc(O)cc1)N1N=CCC1c1ccccc1 (stereo not given)         melting point  158 to 160 °C
1       COc1ccc(F)c(F)c1C(=O)c1cnc(Cl)nc1Cl         melting point  137 to 139 °C
2  CCCCc1cc(CCCc2c3c(nn2CCC)c(N)nc2ccccc23)no1         melting point  132 to 133 °C
3  CCC(O)(CC)c1ccc(Cl)c2nc3n(c12)CCCN3c1ccc(Cl)cc1C(F)(F)F         melting point  178 to 180 °C
4        Cc1ccc(C2C(=O)CC(C)(C)CC2=O)c(C)c1         melting point  167 to 169 °C
5                    CC(C)(S)CN1CCC(CCO)CC1         melting point          42 °C

Query: melting point; subject: O=C(O)c1cccc(-c2ccc3c(c2)C(c2ccc(Cl)cc2Cl)CC3)c1 (stereo not given) 157 to 158 °C

Query: melting point; subject: COc1cc2c(cc1C(=O)O)OCO2 151 °C

Query: melting point; subject: Cc1cc(-c2ccc(Cl)cc2)nc(-c2cccc(-c3cccc(S(N)(=O)=O)c3)c2)n1 221 °C

Query: melting point; subject: CC#CCC(CC#CC)(C(=O)O)S(=O)(=O)c1ccc(N2CCC(NC[C@H](O)c3ccc(O)c(NS(C)(=O)=O)c3)CC2)cc1 175 to 177 °C

Query: melting point; subject: O=C(CN1CCC(CN2C(=O)c3ccccc3C2=O)CC1)c1ccc(F)cc1 110 to 113 °C

Query: melting point; subject: CCOC(=O)c1[nH]c(=O)c(CC(C)C)[n+]([O-])c1N 179 to 181 °C

* * *

EXPERIMENTAL READOUT: melting point

Query: melting point; subject: COc1c(S(N)(=O)=O)cc(C(=O)O)c2c1OCCO2 247 to 248 °C

Query: melting point; subject: O=C(OCc1ccc(-c2ccccc2)cc1)c1cccc(CCl)c1 102 °C

* * *

EXPERIMENTAL READOUT: melting point

Below, each entry is followed by its recorded melting point result.
>>> df
                                   molecule        value
0                         N#CSCC(I)=C(I)CBr  84 to 86 °C
1  CCCCNc1ccccc1S(=O)(=O)NC(=O)n1nc(SC)n(C)c1=O       120 °C
2  Cc1ccc(S(=O)(=O)OCC2C(=O)Nc3ccccc3SC2c2ccccc2)cc1 (stereo unspecified)       215 °C

Query: melting point; subject: CCn1nc2c(N)nc(C)cc2c1CC(C)(C)O 134 to 135 °C

Query: melting point; subject: CCOCc1nc2c(N)nc3ccccc3c2n1OC(C)C 179 to 181 °C

Query: melting point; subject: Clc1ccc2nnnn2n1 104 to 105 °C

Source: a melting point compilation (Tetko et al.; mined from patent text by program, amines drawn as free bases though some values may be those of a salt)
